Recorded pKd, one value per entry.
- TESTED ON: T1, BTN3A3-Fc (recombinant human BTN3A3 Fc-chimera, HEK293-expressed, R&D Systems) (human, UniProt O00478 30-248)
- T1 construct: Bought Fc-chimera; Biotinylated for the yeast display selections; not shown: Fc part of the bought Fc-chimera
- T1 sequence (O00478 30-248, change not shown): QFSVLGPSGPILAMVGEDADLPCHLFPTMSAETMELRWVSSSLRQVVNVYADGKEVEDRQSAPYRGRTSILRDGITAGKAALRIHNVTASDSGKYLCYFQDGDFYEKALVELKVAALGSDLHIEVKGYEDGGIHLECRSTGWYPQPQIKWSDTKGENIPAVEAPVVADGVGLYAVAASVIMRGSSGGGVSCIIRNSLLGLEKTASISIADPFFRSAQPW
- MEASUREMENT DESCRIPTION: binding affinity, method not stated (Octet named in text)
FYI, pKd means -log10 of a concentration in mol per litre.

Look over these answered cases.
Antibody 1G (antibody, IgG1, V domains shown, isotype hIgG1-297A (IgG1 N297A); kappa germline VK3-15.10) VH: QVQLVQSGAEVKKPGASVKVSCKASGYTFTSYGISWVRQAPGQGLEWMGWISAYNGNTNYAQKLQGRVTMTTDTSTSTAYMELRSLRSDDTAVYYCARLGATVAYFDLWGRGTLVTVSS VL: EIVLTQSPATLSVSPGERATLSCRASQSVSSNLAWYQQKPGQAPRLLIYGASTRATGIPARFSGSGSGTEFTLTISSLQSEDFAVYYCQQDVYWPFTFGGGTKVEIK	8.95
Antibody 2A (antibody, IgG1, V domains shown, isotype hIgG1-297A (IgG1 N297A); kappa germline VK3-15.1) VH: QVQLVQSGAEVKKPGASVKVSCKASGYTFTSYYIHWVRQAPGQGLEWMGIINPSGGSTSYAQKFQGRVTMTRDTSTSTVYMELSSLRSEDTAVYYCARATWEALHYWGQGTLVTVSS VL: EIVMTQSPATLSVSPGERATLSCRASQSVGSNLAWYQQKPGQAPRLLIYGASTRATGIPARFSGSGSGTEFTLTISSLQSEDFAVYYCQQYYAWPRTFGGGTKVEIK	8.07

input: Using the record for Antibody 3B (antibody, IgG1, V domains shown, isotype hIgG1-297A (IgG1 N297A); kappa germline VK3-11.0) VH: QVQLVQSGAEVKKPGASVKVSCKASGYTFTSYYMHWVRQAPGQGLEWMGIINPSGGSTSYAQKFQGRVTMTRDTSTSTVYMELSSLRSEDTAVYYCARPSGDYSGYDALDVWGQGTMVTVSS VL: EIVLTQSPATLSLSPGERATLSCRASQSVSSYLAWYQQKPGQAPRLLIYDASNRATGIPARFSGSGSGTDFTLTISSLEPEDFAVYYCQQDPYWPITFGGGTKVEIK , report its pKd.
output: 8.68
